Measured OD450 accompanies every entry in the list below.
Biological target: T1, human MSLN-R1-his protein (human, UniProt Q13421 296-390)
T1 construct: Self-made in HEK293E cells; also called human MSLN-R1 protein; hMSLN-R1-his; not shown: His tag
T1 chain: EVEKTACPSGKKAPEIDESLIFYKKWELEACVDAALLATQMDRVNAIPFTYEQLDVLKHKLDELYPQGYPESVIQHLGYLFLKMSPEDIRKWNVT
Assay: ELISA on coated antigen, antibody 0.0001 nM
Lab book: enter the figure in OD450, no units written.

Below, 2 binders whose answers are already recorded.
S009-F3.74.20 (antibody, human IgG1, kappa, V domains shown, Human-murine chimeric antibody: murine VH/VL on human IgG1 heavy and kappa light constant regions) VH: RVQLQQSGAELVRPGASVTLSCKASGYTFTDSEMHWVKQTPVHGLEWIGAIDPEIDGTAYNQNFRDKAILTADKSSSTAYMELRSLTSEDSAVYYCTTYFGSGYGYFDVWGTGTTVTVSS VL: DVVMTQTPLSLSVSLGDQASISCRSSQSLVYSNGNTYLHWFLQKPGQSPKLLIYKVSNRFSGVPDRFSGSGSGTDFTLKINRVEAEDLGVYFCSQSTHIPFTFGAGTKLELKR; 0.06
S009-F3.45.21 (antibody, human IgG1, kappa, V domains shown, Human-murine chimeric antibody: murine VH/VL on human IgG1 heavy and kappa light constant regions) VH: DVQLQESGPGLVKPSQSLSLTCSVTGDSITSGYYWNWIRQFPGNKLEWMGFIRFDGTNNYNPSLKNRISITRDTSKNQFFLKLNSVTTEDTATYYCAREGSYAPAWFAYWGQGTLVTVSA VL: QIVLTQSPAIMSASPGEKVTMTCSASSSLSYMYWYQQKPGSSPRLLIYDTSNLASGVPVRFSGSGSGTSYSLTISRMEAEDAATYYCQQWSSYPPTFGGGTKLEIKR; 0.06

// OD450 lookup, binder = S009-F3.16.1 (antibody, human IgG1, kappa, V domains shown, Human-murine chimeric antibody: murine VH/VL on human IgG1 heavy and kappa light constant regions) VH: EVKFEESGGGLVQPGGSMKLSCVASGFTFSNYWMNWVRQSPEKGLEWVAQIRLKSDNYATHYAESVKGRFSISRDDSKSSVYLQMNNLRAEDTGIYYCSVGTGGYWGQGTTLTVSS VL: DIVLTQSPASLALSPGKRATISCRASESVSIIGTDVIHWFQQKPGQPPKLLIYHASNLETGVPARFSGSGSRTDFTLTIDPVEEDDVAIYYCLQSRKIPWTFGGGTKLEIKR , result: 0.07
